The reported numbers originate from PubChem BioAssay (NCI).

System: SF-268 CNS
Assay: NCI-60 one-dose screen, 48 h (100 = growth as untreated, 0 = no growth, -100 = all killed)
Settings: 10 µM unless noted
Compounds without any hit were thinned out: in the full panel of roughly 83,000, 20% have a hit.
Tick MET if growth is 90% or greater. Tick NOT MET if growth is less than 90%.

Use the examples below as a reference point.
[
  {
    "Smiles Code": "COc1ccc(C(=O)c2sc3nc4c(c(C(F)(F)F)c3c2N)CN(C(C)=O)CC4)cc1OC",
    "System Name": "SF-268 CNS",
    "Qualitative Label": "NOT MET"
  },
  {
    "Smiles Code": "Cc1ccc2c(c1)C(=O)c1c-2c(OCCCN(C)C)nc2ccccc12",
    "System Name": "SF-268 CNS",
    "Qualitative Label": "NOT MET"
  }
]

Is the recorded value of growth equal to or greater than 90% for this molecule? "CC(=O)CC(C)(C)c1ccc(Cl)cc1"
MET

Is the recorded value of growth equal to or greater than 90% for this molecule? "COc1ccc(/C(=C/c2ccc3ccccc3c2)c2nn[nH]n2)cc1OC"
NOT MET

Is the recorded value of growth equal to or greater than 90% for this molecule? "CC1=N/C(=C\c2cccc(Br)c2)C(=O)O1"
MET

Is the recorded value of growth equal to or greater than 90% for this molecule? "CC1=C(NCCN2CCCC2)C(=O)c2c(OCc3ccc(C(F)(F)F)cc3)cccc2C1=O"
NOT MET

Is the recorded value of growth equal to or greater than 90% for this molecule? "Cc1ccc(N)cc1F"
MET

Is the recorded value of growth equal to or greater than 90% for this molecule? "COc1ccc(-c2cc(/C=C3\C(=O)Nc4ccc(Cl)cc43)[nH]n2)cc1"
NOT MET

Is the recorded value of growth equal to or greater than 90% for this molecule? "CC(C)n1cc2c(N)ncnc2n1"
MET
